src = ChEMBL document CHEMBL4665652

MEASUREMENT_DESCRIPTION: Stability in mouse microsomes assessed as unbound intrinsic clearance
Type: ADME, Microsome
MEASUREMENT_TYPE: CL free
Put your answer as a value accompanied by its unit after it.

Annotate the compound `CNC(=O)[C@@H]1CCCN1S(=O)(=O)c1ccc(Cl)c(COc2cccc3c(-n4ccnc4)cc(C)nc23)c1Cl` with its measured CL free.
16 L/h/kg

Annotate the compound `CNC(=O)[C@@H]1CCCN1S(=O)(=O)c1ccc(Cl)c(COc2cccc3c(C(F)(F)F)cc(C)nc23)c1Cl` with its measured CL free.
83 L/h/kg

Annotate the compound `CNC(=O)[C@@H]1CCCN1S(=O)(=O)c1ccc(Cl)c(COc2cccc3c(-c4cncn4C)cc(C)nc23)c1Cl` with its measured CL free.
7 L/h/kg

Annotate the compound `Cc1cc(C(F)(F)F)c2cccc(OCc3c(Cl)ccc(S(=O)(=O)N4CCC[C@H]4C(=O)O)c3Cl)c2n1` with its measured CL free.
0.8 L/h/kg

Annotate the compound `CNC(=O)[C@@H]1CCCN1S(=O)(=O)c1ccc(Cl)c(COc2cccc3c(-n4ccnc4)cc(C(C)C)nc23)c1Cl` with its measured CL free.
8 L/h/kg

Annotate the compound `CNC(=O)[C@@H]1CCCN1S(=O)(=O)c1ccc(Cl)c(COc2cccc3c(C(F)(F)F)cc(C(C)C)nc23)c1Cl` with its measured CL free.
98 L/h/kg

Annotate the compound `Cc1cc(C(F)(F)F)c2cccc(OCc3c(Cl)ccc(S(=O)(=O)N4CCC(C#N)CC4)c3Cl)c2n1` with its measured CL free.
103 L/h/kg

Annotate the compound `CNC(=O)[C@@H]1CCCN1S(=O)(=O)c1ccc(Cl)c(COc2cccc3c(OCc4ccccc4)cc(C(C)C)nc23)c1Cl` with its measured CL free.
73 L/h/kg

Annotate the compound `Cc1cc(C(F)(F)F)c2cccc(OCc3c(Cl)ccc(S(=O)(=O)N4CCCC4)c3Cl)c2n1` with its measured CL free.
58 L/h/kg

Annotate the compound `COC[C@@H]1CCCN1S(=O)(=O)c1ccc(Cl)c(COc2cccc3c(C(F)(F)F)cc(C)nc23)c1Cl` with its measured CL free.
97 L/h/kg
